Target: mAChR M4 (Homo sapiens, UniProt P08173)
Construct: expressed in transfected cells; host or cells: CHO-K1 cells stably transfected with M4 cDNA and chimeric G-protein Gqi5
Assay: mAChR M4 cell-based functional assay (calcium mobilization, potentiation of EC20 acetylcholine response)
Conditions: % ACh maximum at 30 μM
What Emax at 30 µM was measured for each of the following?
Numbers only, in %.

Consider the worked cases shown below.
Cc1nnc2sc(C(=O)NC3CCN(c4cccc(Cl)c4)C3)c(N)c2c1C (centres unmarked) ... 68
Nc1c(C(=O)NCc2ccc3c(c2)OCO3)sc2nnccc12 ... 63
Cc1nnc2sc(C(=O)NC3CCCOC3)c(N)c2c1C (centres unmarked) ... 64
Cc1nnc2sc(C(=O)NCc3ccc4[nH]ccc4c3)c(N)c2c1C ... 62

Hi team, please reply with Emax at 30 µM for each item in this list.
1. Cc1ccc(S(=O)(=O)N2CC(NC(=O)c3sc4nnc(C)c(C)c4c3N)C2)s1
2. Cc1nnc2sc(C(=O)NC3(c4ccc(F)cc4)CC3)c(N)c2c1C

1. 66
2. 46

Please give Emax at 30 µM for each item listed below.
1. Cc1nnc2sc(C(=O)N3CC(F)(c4cccc(-c5cnn(C)c5)c4)C3)c(N)c2c1C
2. Cc1nnc2sc(C(=O)NCc3ccc(S(=O)(=O)CCO[Si](c4ccccc4)(c4ccccc4)C(C)(C)C)cc3)c(N)c2c1C
3. Cc1nnc2sc(C(=O)NC3CCN(c4ccc(Cl)cc4)C3)c(N)c2c1C (centres unmarked)
4. Cc1nnc2sc(C(=O)N3CC(F)(c4ccc(S(=O)(=O)C(F)F)cc4)C3)c(N)c2c1C

1: 62; 2: 74; 3: 69; 4: 50

// batch mode: one Emax at 30 µM value per listed entry
1. Cc1nnc2sc(C(=O)N3CC(S(=O)(=O)c4ccc(F)cc4F)C3)c(N)c2c1C
2. CCS(=O)(=O)c1ccc(CNC(=O)c2sc3nnc(C)c(C)c3c2N)cc1

[40, 64]

----------
Molecular target: mAChR M4 (Homo sapiens)
Construct: expressed in transfected cells; host or cells: CHO-K1 cells stably transfected with M4 cDNA and chimeric G-protein Gqi5
Sequence (P08173 1-479): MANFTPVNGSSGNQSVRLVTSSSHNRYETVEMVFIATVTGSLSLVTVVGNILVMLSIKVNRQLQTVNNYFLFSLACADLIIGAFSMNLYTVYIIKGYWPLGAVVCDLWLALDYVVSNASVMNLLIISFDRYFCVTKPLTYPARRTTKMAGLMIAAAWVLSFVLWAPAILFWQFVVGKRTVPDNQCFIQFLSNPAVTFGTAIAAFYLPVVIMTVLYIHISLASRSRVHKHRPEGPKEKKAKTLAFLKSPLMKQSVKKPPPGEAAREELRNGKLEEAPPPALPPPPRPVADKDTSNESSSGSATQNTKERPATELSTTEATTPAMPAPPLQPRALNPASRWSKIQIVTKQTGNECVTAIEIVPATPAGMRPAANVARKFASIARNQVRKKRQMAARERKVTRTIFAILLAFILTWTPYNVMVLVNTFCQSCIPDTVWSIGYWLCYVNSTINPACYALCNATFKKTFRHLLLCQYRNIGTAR
Assay: mAChR M4 cell-based functional assay (calcium mobilization, potentiation of EC20 acetylcholine response)
Conditions: mAChR M4 cell-based functional assay; >10,000 estimated for low potency compounds without plateau; read-out: EC50
I'd appreciate it if you marked entries 1 (yes) when EC50 is lower than 600 nM and 0 (no) when it is not.

Use the examples below as a reference point.
COc1ccc(C#CCNC(=O)c2sc3nnc(C)c(C)c3c2N)cc1 [Example B373] ... 1 (yes)
Cc1nnc2sc(C(=O)N3CC4CN(C(=O)CC5CCCCC5)CC4C3)c(N)c2c1C (stereo not drawn) [Example B386] ... 0 (no)
COc1ncccc1-c1ccc(CNC(=O)c2sc3nnc(C)c(C)c3c2N)cc1 [Example B456] ... 1 (yes)

I wonder whether Cc1nnc2sc(C(=O)NCc3ccc(-c4cccc5cccnc45)cc3)c(N)c2c1C [Example B453] has EC50 below 600 nM. Can you tell?
1 (yes)

Continue with Cc1nnc2sc(C(=O)NC3CCN(S(C)(=O)=O)C3)c(N)c2c1C (stereo not drawn) [Example B252]
0 (no)

Next: Cc1nnc2sc(C(=O)NCC3CC3)c(N)c2c1C [Example B6]
1 (yes)

Same read-out for Cc1nnc2sc(C(=O)NC3CCN(C(=O)OCc4ccccc4)C3)c(N)c2c1C (stereo not drawn) [Example B206] ?
1 (yes)

Can you check Cc1nnc2sc(C(=O)NCc3ccc(-c4cncc(F)c4)cc3)c(N)c2c1C [Example B487] next?
1 (yes)

Next: Cc1nnc2sc(C(=O)NCc3ccc(S(=O)(=O)C(F)F)c(F)c3)c(N)c2c1C [Example B468]
1 (yes)

Subsequent entry: Cc1nnc2sc(C(=O)NCc3cccnc3)c(N)c2c1C [Example B316]
1 (yes)

Same lookup for COc1cccc(S(=O)(=O)NC2CCN(C(=O)c3sc4nnc(C)c(C)c4c3N)C2)c1 (stereo not drawn) [Example B213] , please.
0 (no)

Try this molecule next: Cc1nnc2sc(C(=O)NC3CN(C(=O)c4ccc(F)cc4F)C3)c(N)c2c1C [Example B391]
1 (yes)

Another: Cc1nnc2sc(C(=O)NC3COC3)c(N)c2c1C [Example B24]
1 (yes)

Try the molecule Cc1nnc2sc(C(=O)N3CC4CN(C(=O)C5CC5)CC4C3)c(N)c2c1C (stereo not drawn) [Example B332]
0 (no)

Param item: Cc1nnc2sc(C(=O)N[C@@H]3CCN(S(C)(=O)=O)C3)c(N)c2c1C [Example B77]
0 (no)

What do we get for Nc1c(C(=O)NCc2cccc(F)c2F)sc2nnccc12 [Example B18] ?
0 (no)

Next up: Cc1nnc2sc(C(=O)N3CC(c4ccccc4)(N(C)C)C3)c(N)c2c1C [Example B322]
0 (no)
